From: patent US5968952A

Below, each entry is listed with its recorded pIC50.
Molecular target: Human farnesyl protein transferase (Homo sapiens, UniProt P49354+P49356)
Construct: were used as a source of human enzyme; endogenous in cells; ammonium sulfate fraction and Q Sepharose pool
Assay: In Vitro Assay for Inhibition of Farnesyl Protein Transferase ([3H] Scintillation Proximity Assay)
Conditions: Table 7; human enzyme from KHOS cells; biotinylated lamin B peptide substrate; 60 min, 37° C.; read-out: IC50 (concentration of test compound producing 50% inhibition of enzyme activity)
pIC50: −log10 of the molar value.

{"Compound": "Cn1c(=O)cc(-c2ccccc2)c2cc(C(CO)(c3ccc(Cl)cc3)n3ccnc3)ccc21 (racemic) [Compound 59, monohydrate]", "Assayed target": "Human farnesyl protein transferase (Homo sapiens, UniProt P49354+P49356)", "pIC50": 7.89}
{"Compound": "Oc1cc(-c2ccccc2)c2cc(C(c3ccc(Cl)cc3)n3ccnc3)ccc2n1 (single isomer, unassigned; (-))", "Assayed target": "Human farnesyl protein transferase (Homo sapiens, UniProt P49354+P49356)", "pIC50": 6.96}
{"Compound": "O=c1cc(-c2ccccc2)c2cc(C(c3ccccc3Cl)n3ccnc3)ccc2[nH]1 (stereo not shown)", "Assayed target": "Human farnesyl protein transferase (Homo sapiens, UniProt P49354+P49356)", "pIC50": 6.28}
{"Compound": "O=c1cc(-c2ccccc2)c2cc(C(c3ccc(Cl)cc3)n3cnc(-c4ccccc4)c3)ccc2[nH]1 (stereo not shown)", "Assayed target": "Human farnesyl protein transferase (Homo sapiens, UniProt P49354+P49356)", "pIC50": 6.98}

* * *

Biological target: Human farnesyl protein transferase (Homo sapiens, UniProt P49354+P49356)
Construct: were used as a source of human enzyme; endogenous in cells; ammonium sulfate fraction and Q Sepharose pool
Test: In Vitro Assay for Inhibition of Farnesyl Protein Transferase ([3H] Scintillation Proximity Assay)
Settings: Table 7; human enzyme from KHOS cells; biotinylated lamin B peptide substrate; 60 min, 37° C.; read-out: IC50 (concentration of test compound producing 50% inhibition of enzyme activity)
Description: In Vitro Assay for Inhibition of Farnesyl Protein Transferase Human farnesyl protein transferase was prepared essentially as described ([…] al., Methods: A Companion to Methods in Enzymology vol 1, 241-245, 1990). […] Fractions containing 4 to 5 ml volumes of column eluate were collected and analyzed for farnesyl protein transferase activity. […] The activity of farnesyl protein transferase was measured using the Farnesyl Transferase [^3 H] […]
Below, each entry is listed with its recorded log10 of IC50.
Quantity kind: log10 of IC50 (log10 of the value in nM)

{"Compound": "O=c1cc(-c2cccc(C(F)(F)F)c2)c2cc(C(c3ccc(Cl)cc3)n3ccnc3)ccc2[nH]1 (stereo not drawn) [Compound 20]", "Numeric value": 2.38}
{"Compound": "O=c1cc(-c2ccc(Cl)c(Cl)c2)c2cc(C(c3ccc(Cl)cc3)n3ccnc3)ccc2[nH]1 (stereo not drawn) [Compound 26]", "Numeric value": 2.36}
{"Compound": "CCCn1c(=O)cc(-c2ccccc2)c2cc(C(c3ccc(Cl)cc3)n3ccnc3)ccc21 (stereo not drawn) [Compound 14]", "Numeric value": 2.85}
{"Compound": "COCCn1c(=O)cc(-c2cccc(Cl)c2)c2cc(C(c3ccc(Cl)cc3)n3ccnc3)ccc21 (stereo not drawn) [Compound 77, monohydrate]", "Numeric value": 0.86}
{"Compound": "Cc1cccc(-c2cc(=O)[nH]c3ccc(C(c4ccc(Cl)cc4)n4ccnc4)cc23)c1 (stereo not drawn) [Compound 18]", "Numeric value": 1.60}
{"Compound": "Cn1c(=O)cc(-c2cccc(Cl)c2)c2cc(C(C)(c3ccc(Cl)cc3)n3ccnc3)ccc21 (racemic) [Compound 62]", "Numeric value": 1.34}
{"Compound": "CC(c1ccc(Cl)cc1)(c1ccc2[nH]c(=O)cc(-c3ccccc3)c2c1)n1ccnc1 (stereo not drawn) [Compound 58]", "Numeric value": 2.43}
{"Compound": "Cn1c(=O)cc(-c2cccc(Cl)c2)c2cc(C(c3ccc(Cl)cc3)n3ccnc3)ccc21 (stereo not drawn) [Compound 15]", "Numeric value": 1.20}
{"Compound": "CCCC(c1ccc(Cl)cc1)(c1ccc2c(c1)c(-c1cccc(Cl)c1)cc(=O)n2C)n1ccnc1 (stereo not drawn) [Compound 65]", "Numeric value": 1.71}
{"Compound": "Cc1cncn1C(c1ccc(Cl)cc1)c1ccc2[nH]c(=O)cc(-c3cccc(Cl)c3)c2c1 (stereo not drawn) [Compound 53]", "Numeric value": 1.51}
{"Compound": "O=c1cc(-c2cccc(Cl)c2)c2cc(C(c3ccc(Cl)cc3)n3ccnc3)ccc2[nH]1 (stereo not drawn) [Compound 13]", "Numeric value": 1.53}
{"Compound": "O=c1cc(-c2ccccc2)c2cc(C(c3cccc(Cl)c3)n3ccnc3)ccc2[nH]1 (stereo not drawn) [Compound 3]", "Numeric value": 3.15}
{"Compound": "Cn1c(=O)cc(-c2ccc3c(c2)OCO3)c2cc(C(c3ccc(Cl)cc3)n3ccnc3)ccc21 (stereo not drawn) [Compound 83]", "Numeric value": 0.53}
{"Compound": "O=c1cc(-c2cccc(Br)c2)c2cc(C(c3ccc(Cl)cc3)n3ccnc3)ccc2[nH]1 (stereo not drawn) [Compound 30]", "Numeric value": 1.32}
{"Compound": "Cc1ccccc1-c1cc(=O)[nH]c2ccc(C(c3ccc(Cl)cc3)n3ccnc3)cc12 (stereo not drawn) [Compound 28]", "Numeric value": 3.34}
{"Compound": "Cn1c(=O)cc(-c2ccccc2)c2cc(C(c3ccc(Cl)cc3)n3ccnc3)ccc21 (racemic) [Compound 8]", "Numeric value": 1.85}
{"Compound": "COc1ccc(C(c2ccc3[nH]c(=O)cc(-c4ccccc4)c3c2)n2ccnc2)cc1 (stereo not drawn) [Compound 33]", "Numeric value": 2.93}
{"Compound": "O=c1cc(-c2ccccc2)c2cc(C(c3ccc(Cl)cc3Cl)n3ccnc3)ccc2[nH]1 (stereo not drawn) [Compound 31]", "Numeric value": 2.68}
{"Compound": "O=c1cc(-c2ccccc2)c2cc(C(c3ccc(Cl)cc3)n3ccnc3)ccc2n1Cc1ccccc1 (stereo not drawn) [Compound 10]", "Numeric value": 2.34}
{"Compound": "Cc1ccc(-c2cc(=O)[nH]c3ccc(C(c4ccc(Cl)cc4)n4ccnc4)cc23)cc1 (stereo not drawn) [Compound 27]", "Numeric value": 2.29}
{"Compound": "Cc1ccc(C(c2ccc3[nH]c(=O)cc(-c4ccccc4)c3c2)n2ccnc2)cc1 (stereo not drawn) [Compound 25]", "Numeric value": 2.42}
{"Compound": "O=c1cc(-c2cccc(F)c2)c2cc(C(c3ccc(Cl)cc3)n3ccnc3)ccc2[nH]1 (stereo not drawn) [Compound 21]", "Numeric value": 2.18}
{"Compound": "O=c1cc(-c2ccccc2)c2cc(C(c3ccc(Cl)cc3)n3ccnc3)ccc2[nH]1 (stereo not drawn) [Compound 2]", "Numeric value": 2.26}
{"Compound": "O=c1cc(-c2ccccc2)c2cc(C(c3ccc(Cl)c(Cl)c3)n3ccnc3)ccc2[nH]1 (stereo not drawn) [Compound 34]", "Numeric value": 2.78}
{"Compound": "O=c1cc(-c2cc(Cl)cc(Cl)c2)c2cc(C(c3ccc(Cl)cc3)n3ccnc3)ccc2[nH]1 (stereo not drawn) [Compound 37]", "Numeric value": 1.98}
{"Compound": "COC(=O)C(CC(C)C)NC(=O)Cn1c(=O)cc(-c2ccccc2)c2cc(C(c3ccc(Cl)cc3)n3ccnc3)ccc21 (racemic) [Compound 39]", "Numeric value": 1.67}
{"Compound": "O=c1cc(-c2ccc(Cl)cc2)c2cc(C(c3ccc(Cl)cc3)n3ccnc3)ccc2[nH]1 (stereo not drawn) [Compound 11]", "Numeric value": 2.51}
{"Compound": "COc1ccc(CCn2c(=O)cc(-c3ccccc3)c3cc(C(c4ccc(Cl)cc4)n4ccnc4)ccc32)cc1 (stereo not drawn) [Compound 29]", "Numeric value": 3.38}
{"Compound": "O=c1cc(-c2cccc(Cl)c2)c2cc(C(c3ccc(Cl)cc3)n3ccnc3)ccc2[nH]1 (single isomer, unassigned) [Compound 23]", "Numeric value": 1.18}
{"Compound": "CCC(c1ccc(Cl)cc1)(c1ccc2c(c1)c(-c1cccc(Cl)c1)cc(=O)n2C)n1ccnc1 (stereo not drawn) [Compound 63]", "Numeric value": 1.48}

* * *

Biological target: Human farnesyl protein transferase (Homo sapiens, UniProt P49354+P49356)
Construct: were used as a source of human enzyme; endogenous in cells; host or cells: Kirsten virus transformed human osteosarcoma (KHOS) cells (ATCC), grown as monolayers or as solid tumors in nude mice; ammonium sulfate fraction and Q Sepharose pool
Assay: In Vitro Assay for Inhibition of Farnesyl Protein Transferase ([3H] Scintillation Proximity Assay)
Type: biochemical
Conditions: Table 7; human enzyme from KHOS cells; biotinylated lamin B peptide substrate; 60 min, 37° C.; read-out: IC50 (concentration of test compound producing 50% inhibition of enzyme activity)
pIC50: −log10 of the molar value.
Values of pIC50 greater than or equal to 7 map to Criterion met; values below map to Criterion not met.

{"Compound": "Cc1cncn1C(C)(c1ccc(Cl)cc1)c1ccc2c(c1)c(-c1cccc(Cl)c1)cc(=O)n2C (stereo not drawn)", "Assayed target": "Human farnesyl protein transferase (Homo sapiens, UniProt P49354+P49356)", "Group label": "Criterion met"}
{"Compound": "COc1cccc(-c2cc(=O)[nH]c3ccc(C(c4ccc(Cl)cc4)n4ccnc4)cc23)c1 (stereo not drawn)", "Assayed target": "Human farnesyl protein transferase (Homo sapiens, UniProt P49354+P49356)", "Group label": "Criterion met"}
{"Compound": "O=C1CC(c2ccccc2)c2cc(C(c3ccc(Cl)cc3)n3ccnc3)ccc2N1 (racemic)", "Assayed target": "Human farnesyl protein transferase (Homo sapiens, UniProt P49354+P49356)", "Group label": "Criterion not met"}
{"Compound": "O=c1cc(-c2ccccc2Cl)c2cc(C(c3ccc(Cl)cc3)n3ccnc3)ccc2[nH]1 (stereo not drawn)", "Assayed target": "Human farnesyl protein transferase (Homo sapiens, UniProt P49354+P49356)", "Group label": "Criterion not met"}
{"Compound": "O=c1cc(-c2ccccc2)c2cc(C(c3ccccc3)n3ccnc3)ccc2[nH]1 (racemic)", "Assayed target": "Human farnesyl protein transferase (Homo sapiens, UniProt P49354+P49356)", "Group label": "Criterion not met"}
{"Compound": "Cn1c(=O)cc(-c2cccc(Cl)c2)c2cc(C(CO)(c3ccc(Cl)cc3)n3ccnc3)ccc21 (stereo not drawn)", "Assayed target": "Human farnesyl protein transferase (Homo sapiens, UniProt P49354+P49356)", "Group label": "Criterion met"}
{"Compound": "O=c1cc(-c2ccccc2)c2cc(C(c3ccc(F)cc3)n3ccnc3)ccc2[nH]1 (stereo not drawn)", "Assayed target": "Human farnesyl protein transferase (Homo sapiens, UniProt P49354+P49356)", "Group label": "Criterion not met"}
{"Compound": "Cc1cncn1C(c1ccc(Cl)cc1)c1ccc2[nH]c(=O)cc(-c3ccccc3)c2c1 (stereo not drawn)", "Assayed target": "Human farnesyl protein transferase (Homo sapiens, UniProt P49354+P49356)", "Group label": "Criterion not met"}
{"Compound": "CCOC(=O)Cn1c(=O)cc(-c2ccccc2)c2cc(C(c3ccc(Cl)cc3)n3ccnc3)ccc21 (stereo not drawn)", "Assayed target": "Human farnesyl protein transferase (Homo sapiens, UniProt P49354+P49356)", "Group label": "Criterion not met"}
